target under test: Lipoxygenase (Glycine max, UniProt Q39829)
measurement name: IC50 (µM)
Record the value in µM, omitting the unit from your answer.

For orientation, consider the following solved cases.
# compound, unit string, result number
records = [
    ("CCOC(OCC)c1ccc(/C=C2\\CCC/C(=C\\c3ccc(C(OCC)OCC)cc3)C2=O)cc1", "µM", 83.1),
    ("CN(C)c1ccc(/C=C/C(=O)/C=C/c2ccc(N(C)C)cc2[N+](=O)[O-])c([N+](=O)[O-])c1", "µM", 103),
    ("CN1C/C(=C\\c2ccc(N(C)C)cc2[N+](=O)[O-])C(=O)/C(=C/c2ccc(N(C)C)cc2[N+](=O)[O-])C1", "µM", 38.3),
]

Exercise: Given the entry COc1cc(/C=C/C(=O)CC(=O)/C=C/c2ccc(O)c(OC)c2)ccc1O [CURCUMIN] , report its measured IC50.
Key: 59.5

Exercise: Given the entry CCOC(OCC)c1ccc(/C=C2\COC/C(=C\c3ccc(C(OCC)OCC)cc3)C2=O)cc1 , report its measured IC50.
Key: 91

Numbers sourced from ChEMBL document CHEMBL3352402.
